# test method notes: solvent given as SMILES
# condition parameters: in ClCCl
value kind: fluorescence lifetime (ns)

Here's what some known entries look like.
CC(C)(C)c1ccc(-c2nc3c4ccc(-c5c6ccccc6cc6ccccc56)cc4c4cc(-c5c6ccccc6cc6ccccc56)ccc4c3n2-c2ccc(C(C)(C)C)cc2)cc1 ... 6.1
CCCCCCCCCCCCN1C(=O)c2c(c3ccc4cc(-c5ccc(Cl)cc5)c(OC)cc4c3c3c2ccc2cc(-c4ccc(Cl)cc4)c(OC)cc23)C1=O ... 6.15
CCCCCCCCCCCCn1nnc(-c2ccc(C#Cc3ccc(C#Cc4ccc(-c5nnn(CCCCCCCCCCCC)n5)cc4)c4nc5c6ccccc6c6ccccc6c5nc34)cc2)n1 ... 4.82

(1) CCC(CC)COC1=CC2=C3c4cc(OCC(CC)CC)c(-c5cccs5)n4[B-](F)(F)[n+]4nnn(c43)[B-](F)(F)[N+]2=C1c1cccs1
(2) CC(C)(C)c1ccc(-c2nc3c4ccc(-c5cc6ccccc6c6ccccc56)cc4c4cc(-c5cc6ccccc6c6ccccc56)ccc4c3n2-c2ccc(C(C)(C)C)cc2)cc1
(3) CCc1c(C)[nH]c(C2=[N+]3C(=Cc4c(C)c(CC)c(/C=C/c5ccc(N(C)C)cc5)n4[B-]3(F)F)c3ccccc32)c1C
// ranking: key=fluorescence lifetime, reverse=True Output spec: a listing of the labels in the requested order.
2, 3, 1
(2: 7 ns, 3: 2.3 ns, 1: 0.5 ns)
